Tested on: Serine/threonine-protein kinase 4, STK4/MST1 (Homo sapiens)
Metric name: IC50

Smiles input	Metric name	Value
O=C(c1ccc(F)c(F)c1Nc1ccc(I)cc1F)N1CC(O)([C@@H]2CCCCN2)C1	IC50	> 10 µM
